src = the Immune Epitope Database (IEDB)

# TARGET DESC: HLA-A*69:01
# TEST METHOD NOTES: IEDB peptide-MHC binding, purified MHC/competitive/fluorescence; filed as Kd, often an IC50 or EC50 that approximates it; bounds were set here for any values at or beyond the usual limits of such assays
# CONDITION INFO: source organism: Human immunodeficiency virus type 1 (BH5 ISOLATE)
ASSAY METRIC: Kd (nM)
Entry rule: numbers only, all in nM.

Report Kd for "VLAEAMSQV" tested on HLA-A*69:01.
82.7

====

# TARGET DESC: HLA-C*06:02
# TEST METHOD NOTES: IEDB peptide-MHC binding, purified MHC/competitive/fluorescence; filed as Kd, often an IC50 or EC50 that approximates it; bounds were set here for any values at or beyond the usual limits of such assays
# CONDITION INFO: source organism: Giardia lamblia ATCC 50803
ASSAY METRIC: Kd (nM)
Write the value in nM as a bare number.

So what Kd did "YTFFFTQYF" get with HLA-C*06:02?
1390

====

# TARGET DESC: HLA-B*57:01
# TEST METHOD NOTES: IEDB peptide-MHC binding, purified MHC/direct/fluorescence; filed as Kd, often an IC50 or EC50 that approximates it; bounds were set here for any values at or beyond the usual limits of such assays
# CONDITION INFO: source organism: Campylobacter jejuni RM1221
pKd: −log10 of the molar value.
# pKd values compiled below

AKYEICLEK : ≤ 4.70

We next turn to a different sequence, shown below.
Which value of pKd has been reported for "VQKVNPAPK" in the records?
≤ 4.70

====

# TARGET DESC: HLA-B*27:05
# TEST METHOD NOTES: IEDB peptide-MHC binding, purified MHC/direct/fluorescence; filed as Kd, often an IC50 or EC50 that approximates it; bounds were set here for any values at or beyond the usual limits of such assays
# CONDITION INFO: source organism: Entamoeba histolytica
pKd: −log10 of the molar value.
ASSAY METRIC: pKd

Item "DFGYATMAK" has what recorded pKd?
≤ 4.70

====

# TARGET DESC: HLA-A*02:01
# TEST METHOD NOTES: IEDB peptide-MHC binding, purified MHC/competitive/radioactivity; filed as Kd, often an IC50 or EC50 that approximates it; bounds were set here for any values at or beyond the usual limits of such assays
# CONDITION INFO: source organism: Homo sapiens
ASSAY METRIC: pKd
The meaning of pKd here: minus log10 of the concentration in molar units.

ELADKVTKL : 5.60
GLDVLTAKV : 6.88
EMIQLQEEL : 5.51

// next entry
Requested field: pKd. Item: "ALYGSVPVL"
8.09

====

# TARGET DESC: HLA-B*27:05
# TEST METHOD NOTES: IEDB peptide-MHC binding, purified MHC/direct/fluorescence; filed as Kd, often an IC50 or EC50 that approximates it; bounds were set here for any values at or beyond the usual limits of such assays
# CONDITION INFO: source organism: Influenza A virus (A/Hong Kong/507/97(H5N1))
ASSAY METRIC: Kd

Quick one: Kd of "LAKSVFNSL" ?
≥ 20 µM

====

# TARGET DESC: HLA-B*39:01
# TEST METHOD NOTES: IEDB peptide-MHC binding, purified MHC/competitive/fluorescence; filed as Kd, often an IC50 or EC50 that approximates it; bounds were set here for any values at or beyond the usual limits of such assays
# CONDITION INFO: source organism: Shigella boydii CDC 3083-94
pKd: −log10 of the molar value.
ASSAY METRIC: pKd

Checklist item: pKd tested on HLA-B*39:01, entry "RNNDPTLPY" , value?
≤ 4.70
